SYSTEM UNDER TEST: glucose-6-phosphatase system (Rattus norvegicus)
Sequence (F7EWB7 1-429): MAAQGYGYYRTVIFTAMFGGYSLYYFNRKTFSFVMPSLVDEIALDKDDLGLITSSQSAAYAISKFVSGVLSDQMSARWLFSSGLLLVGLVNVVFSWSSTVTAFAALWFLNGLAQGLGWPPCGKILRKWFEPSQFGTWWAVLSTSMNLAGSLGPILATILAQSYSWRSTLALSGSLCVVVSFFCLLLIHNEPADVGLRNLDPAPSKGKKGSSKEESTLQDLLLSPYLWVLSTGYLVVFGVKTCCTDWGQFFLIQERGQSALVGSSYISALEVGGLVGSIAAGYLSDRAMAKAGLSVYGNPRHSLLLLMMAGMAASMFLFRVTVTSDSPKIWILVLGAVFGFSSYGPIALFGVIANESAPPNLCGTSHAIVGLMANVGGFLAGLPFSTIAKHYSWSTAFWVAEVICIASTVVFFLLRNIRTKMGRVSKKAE
pIC50: −log10 of the molar value.

COMPOUND: O=C(/C=C(/c1ccccc1)n1cnc2ccccc21)O[C@@H]1C[C@](OC[C@@H]2C[C@@H]2c2ccc(Cl)cc2)(C(=O)NS(=O)(=O)c2ccc3ccccc3c2)C[C@@H](O)[C@H]1O [Compound 9]
pIC50: 6.52
